The measured values listed here are drawn from ChEMBL document CHEMBL1133190.

Each record here notes measured Other.
System: Liposome
ASSAY PROCEDURE: Binding to POPC/GMI liposomes using biosensor system
VALUE KIND: Other

                                   compound  study_target  value_kind  number
0          COc1ccc2cc([C@H](C)C(=O)O)ccc2c1      Liposome       Other     183
1                                   NC(N)=O      Liposome       Other      26
2  CC(C)(C)NCC(O)c1cc(O)cc(O)c1 (stereo not drawn)      Liposome       Other     117
3                            CN1CC(=O)NC1=N      Liposome       Other      13
4                           O=C(O)P(=O)(O)O      Liposome       Other      62
5  COCCc1ccc(OCC(O)CNC(C)C)cc1 (stereo not drawn)      Liposome       Other     179
6  O=C(O)c1cc(/N=N/c2ccc(S(=O)(=O)Nc3ccccn3)cc2)ccc1O      Liposome       Other     348
7                      CC(C)C[C@H](N)C(=O)O      Liposome       Other      11

* * *

Tested on: Liposome
ASSAY PROCEDURE: Binding to POPC (palmitoyl-oleolyl-phosphatidyl-choline) liposomes using biosensor system
Each record here notes measured Other.
VALUE KIND: Other

                                   compound  study_target  number
0                      CC(C)C[C@H](N)C(=O)O      Liposome      18
1  COCCc1ccc(OCC(O)CNC(C)C)cc1 (stereo not drawn)      Liposome      82
2          COc1ccc2cc([C@H](C)C(=O)O)ccc2c1      Liposome     109
3                                   NC(N)=O      Liposome      23
4                            CN1CC(=O)NC1=N      Liposome      22
5                           O=C(O)P(=O)(O)O      Liposome      32
6  CC(C)(C)NCC(O)c1cc(O)cc(O)c1 (stereo not drawn)      Liposome      47
7  O=C(O)c1cc(/N=N/c2ccc(S(=O)(=O)Nc3ccccn3)cc2)ccc1O      Liposome     241

* * *

Each record here notes measured Fa.
ASSAY PROCEDURE: Estimation of fraction absorbed (Fa) in the human intestine using biosensor technology.
Assay type: ADME, organism-based
CONDITION: in vivo
VALUE KIND: Fa (%)

>>> print(df.to_string())
                                    compound  number
 0  CC(C)NCC(O)COc1cccc2ccccc12 (centres undefined) [PROPRANOLOL]     100
 1                            NC(N)=O [UREA]     100
 2     Cc1cc(=O)n(-c2ccccc2)n1C [ANTIPYRINE]     100
 3            CC(C)C[C@H](N)C(=O)O [LEUCINE]     100
 4  CNCCCN1c2ccccc2CCc2ccccc21 [DESIPRAMINE]     100
 5  NC(=O)N1c2ccccc2C=Cc2ccccc21 [CARBAMAZEPINE]     100
 6  NS(=O)(=O)c1cc2c(cc1Cl)NCNS2(=O)=O [HYDROCHLOROTHIAZIDE]      55
 7  OC[C@H]1OC(O)[C@H](O)[C@@H](O)[C@@H]1O (some centres undefined) [DEXTROSE]     100
 8               CN1CC(=O)NC1=N [CREATININE]     100
 9  NS(=O)(=O)c1cc(C(=O)O)c(NCc2ccco2)cc1Cl [FUROSEMIDE]      50
10  COc1ccc(CCN(C)CCCC(C#N)(c2ccc(OC)c(OC)c2)C(C)C)cc1OC (centres undefined)     100
11  CC(C(=O)O)c1cccc(C(=O)c2ccccc2)c1 (centres undefined) [KETOPROFEN]     100
12  COc1ccc2cc([C@H](C)C(=O)O)ccc2c1 [NAPROXEN]     100
13  CC1(C)S[C@@H]2[C@H](NC(=O)[C@H](N)c3ccc(O)cc3)C(=O)N2[C@H]1C(=O)O [AMOXICILLIN]      90
